- measurement.target: human GPR119 receptor (Homo sapiens)
- Construct: expressed in transfected cells
- Sequence (Q8TDV5 1-335): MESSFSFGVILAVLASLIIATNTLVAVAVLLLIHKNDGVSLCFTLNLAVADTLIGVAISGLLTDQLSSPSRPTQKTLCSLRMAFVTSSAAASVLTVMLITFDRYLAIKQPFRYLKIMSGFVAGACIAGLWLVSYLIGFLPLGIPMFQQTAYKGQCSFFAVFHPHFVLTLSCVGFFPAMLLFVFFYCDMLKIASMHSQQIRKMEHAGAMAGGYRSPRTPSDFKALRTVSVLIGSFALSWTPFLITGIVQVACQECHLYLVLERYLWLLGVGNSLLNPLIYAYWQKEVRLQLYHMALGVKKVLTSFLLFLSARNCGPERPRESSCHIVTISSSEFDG
- test: Human GPR119 Activity Assay (cAMP, HTRF)
- Type: cell-based
assay.endpoint: EC50 (nM)
Your answer should be a plain number; it is taken to be in nM.

Query: Specify reported EC50 for the molecule shown: CN(Cc1ccc(-c2ccc(S(C)(=O)=O)cc2)nc1)C1CCN(C(=O)OC(C)(C)C)CC1 [EXAMPLE B2]
Result: 22
